Provide the recorded pKd for the entries that follow.
System Name: huPD1-ECD_Fc-knob/hole (P1AD9704) (human)
Assay Explanation: SPR, 25C
Answers are plain numbers, as −log10 of the molar value.

>>> recorded_result("P1AH4161 PD1-376_VL2_VH1_2_3_4 (antibody, V domains shown) VH: EVQLVESGGGLVQPGGSLRLSCAASGFTFSSYAMSWVRQAPGKGLEWVSAISGGGRDIYYPDSVKGRFTISRDNSKNTLYLQMNSLRAEDTAVYYCVLLTGRVYFALDSWGQGTLVTVSS VL: DIVMTQSPDSLAVSLGERATINCKASESVDTSDNSFIHWYQQKPGQSPKLLIYRASTLESGVPDRFSGSGSGTDFTLTISSLQAEDVAVYYCQQNYDVPWTFGQGTKVEIKR")
9.40
>>> recorded_result("P1AH4157 PD1-376_VL2_VH4 (antibody, V domains shown) VH: EVQLLESGGGLVQPGGSLRLSCAASGFSFSSYTMSWVRQAPGKGLEWVSAISGGGRDIYYPDSVKGRFTISRDNSKNTLYLQMNSLRAEDTAVYYCVLLTGRVYFALDSWGQGTLVTVSS VL: DIVMTQSPDSLAVSLGERATINCKASESVDTSDNSFIHWYQQKPGQSPKLLIYRASTLESGVPDRFSGSGSGTDFTLTISSLQAEDVAVYYCQQNYDVPWTFGQGTKVEIKR")
9.70
>>> recorded_result("P1AH4158 PD1-376_VL7_VH4 (antibody, V domains shown) VH: EVQLLESGGGLVQPGGSLRLSCAASGFSFSSYTMSWVRQAPGKGLEWVSAISGGGRDIYYPDSVKGRFTISRDNSKNTLYLQMNSLRAEDTAVYYCVLLTGRVYFALDSWGQGTLVTVSS VL: DIVMTQSPDSLAVSLGERATINCKASESVDTSDNSFIHWYQQKPGQSPKLLIYRESTQESGVPDRFSGSGSGTDFTLTISSLQAEDVAVYYCQQNYDVPWTFGQGTKVEIKR")
8.82

For every record below, what is its pKd?
1. P1AH4160 PD1-376_VL7_VH1_2_4 (antibody, V domains shown) VH: EVQLVESGGGLVQPGGSLRLSCAASGFTFSSYTMSWVRQAPGKGLEWVSAISGGGRDIYYPDSVKGRFTISRDNSKNTLYLQMNSLRAEDTAVYYCVLLTGRVYFALDSWGQGTLVTVSS VL: DIVMTQSPDSLAVSLGERATINCKASESVDTSDNSFIHWYQQKPGQSPKLLIYRESTQESGVPDRFSGSGSGTDFTLTISSLQAEDVAVYYCQQNYDVPWTFGQGTKVEIKR
2. P1AH4159 PD1-376_VL2_7_VH4 (antibody, V domains shown) VH: EVQLLESGGGLVQPGGSLRLSCAASGFSFSSYTMSWVRQAPGKGLEWVSAISGGGRDIYYPDSVKGRFTISRDNSKNTLYLQMNSLRAEDTAVYYCVLLTGRVYFALDSWGQGTLVTVSS VL: DIVMTQSPDSLAVSLGERATINCKASESVDTSDNSFIHWYQQKPGQSPKLLIYRASTQESGVPDRFSGSGSGTDFTLTISSLQAEDVAVYYCQQNYDVPWTFGQGTKVEIKR

8.92
9.70

Hello, the source for this data is patent US20260345804, in case you need it.
